Attribution: the supplement of paper PMC5998384

system: HeLa Kyoto; test: melting temperature (median over replicates), in situ; higher = more thermally stable; settings: cell cycle stage: G1/S
Catalogue of melting temperature values
Give the quantity in °C, number only.

1. MAPWGKRLAGVRGVLLDISGVLYDSGAGGGTAIAGSVEAVARLKRSRLKVRFCTNESQKSRAELVGQLQRLGFDISEQEVTAPAPAACQILKEQGLRPYLLIHDGVRSEFDQIDTSNPNCVVIADAGESFSYQNMNNAFQVLMELEKPVLISLGKGRYYKETSGLMLDVGPYMKALEYACGIKAEVVGKPSPEFFKSALQAIGVEAHQAVMIGDDIVGDVGGAQRCGMRALQVRTGKFRPSDEHHPEVKADGYVDNLAEAVDLLLQHADK [LHPP]
56.5
2. MKAVVQRVTRASVTVGGEQISAIGRGICVLLGISLEDTQKELEHMVRKILNLRVFEDESGKHWSKSVMDKQYEILCVSQFTLQCVLKGNKPDFHLAMPTEQAEGFYNSFLEQLRKTYRPELIKDGKFGAYMQVHIQNDGPVTIELESPAPGTATSDPKQLSKLEKQQQRKEKTRAKGPSESSKERNTPRKEDRSASSGAEGDVSSEREP [DTD1]
58.3

QUERY: Returns the measured melting temperature for the input sequence. Input: MVKLTAELIEQAAQYTNAVRDRELDLRGYKIPVIENLGATLDQFDAIDFSDNEIRKLDGFPLLRRLKTLLVNNNRICRIGEGLDQALPCLTELILTNNSLVELGDLDPLASLKSLTYLSILRNPVTNKKHYRLYVIYKVPQVRVLDFQKVKLKERQEAEKMFKGKRGAQLAKDIARRSKTFNPGAGLPTDKKKGGPSPGDVEAIKNAIANASTLAEVERLKGLLQSGQIPGRERRSGPTDDGEEEMEEDTVTNGS [SNRPA1]
RESULT: 54

QUERY: What do you get for MSGELPPNINIKEPRWDQSTFIGRANHFFTVTDPRNILLTNEQLESARKIVHDYRQGIVPPGLTENELWRAKYIYDSAFHPDTGEKMILIGRMSAQVPMNMTITGCMMTFYRTTPAVLFWQWINQSFNAVVNYTNRSGDAPLTVNELGTAYVSATTGAVATALGLNALTKHVSPLIGRFVPFAAVAAANCINIPLMRQRELKVGIPVTDENGNRLGESANAAKQAITQVVVSRILMAAPGMAIPPFIMNTLEKKAFLKRFPWMSAPIQVGLVGFCLVFATPLCCALFPQKSSMSVTSLEAELQAKIQESHPELRRVYFNKGL [SFXN1] ?
RESULT: 54.4

QUERY: What do you get for MASPGCLWLLAVALLPWTCASRALQHLDPPAPLPLVIWHGMGDSCCNPLSMGAIKKMVEKKIPGIYVLSLEIGKTLMEDVENSFFLNVNSQVTTVCQALAKDPKLQQGYNAMGFSQGGQFLRAVAQRCPSPPMINLISVGGQHQGVFGLPRCPGESSHICDFIRKTLNAGAYSKVVQERLVQAEYWHDPIKEDVYRNHSIFLADINQERGINESYKKNLMALKKFVMVKFLNDSIVDPVDSEWFGFYRSGQAKETIPLQETSLYTQDRLGLKEMDNAGQLVFLATEGDHLQLSEEWFYAHIIPFLG [PPT1] ?
RESULT: 55.1

---

tested on: HeLa Kyoto; assay: thermal stability score vs G1/S (z-score of summed log2 fold changes over temperatures); higher = more thermally stable than in G1/S; conditions: cell cycle stage: early G1 (4.5 h after nocodazole release)
recorded.endpoint: thermal stability score
// no unit, no text: just the number

QUERY: Return thermal stability score measured with HeLa Kyoto given this sequence: MTDGILGKAATMEIPIHGNGEARQLPEDDGLEQDLQQVMVSGPNLNETSIVSGGYGGSGDGLIPTGSGRHPSHSTTPSGPGDEVARGIAGEKFDIVKKWGINTYKCTKQLLSERFGRGSRTVDLELELQIELLRETKRKYESVLQLGRALTAHLYSLLQTQHALGDAFADLSQKSPELQEEFGYNAETQKLLCKNGETLLGAVNFFVSSINTLVTKTMEDTLMTVKQYEAARLEYDAYRTDLEELSLGPRDAGTRGRLESAQATFQAHRDKYEKLRGDVAIKLKFLEENKIKVMHKQLLLFHNAVSAYFAGNQKQLEQTLQQFNIKLRPPGAEKPSWLEEQ [ARFIP2]
RESULT: -0.945

---

Catalogue of melting temperature values
tested on: HeLa Kyoto; test: melting temperature (median over replicates), in situ; higher = more thermally stable; conditions: cell cycle stage: mitosis
Give the quantity in °C, number only.

Example cases with answers are listed next.
1) MSLYPSLEDLKVDKVIQAQTAFSANPANPAILSEASAPIPHDGNLYPRLYPELSQYMGLSLNEEEIRANVAVVSGAPLQGQLVARPSSINYMVAPVTGNDVGIRRAEIKQGIREVILCKDQDGKIGLRLKSIDNGIFVQLVQANSPASLVGLRFGDQVLQINGENCAGWSSDKAHKVLKQAFGEKITMTIRDRPFERTITMHKDSTGHVGFIFKNGKITSIVKDSSAARNGLLTEHNICEINGQNVIGLKDSQIADILSTSGTVVTITIMPAFIFEHIIKRMAPSIMKSLMDHTIPEV [SDCBP]
51.4
2) MSAEVKVTGQNQEQFLLLAKSAKGAALATLIHQVLEAPGVYVFGELLDMPNVRELAESDFASTFRLLTVFAYGTYADYLAEARNLPPLTEAQKNKLRHLSVVTLAAKVKCIPYAVLLEALALRNVRQLEDLVIEAVYADVLRGSLDQRNQRLEVDYSIGRDIQRQDLSAIARTLQEWCVGCEVVLSGIEEQVSRANQHKEQQLGLKQQIESEVANLKKTIKVTTAAAAAATSQDPEQHLTELREPAPGTNQRQPSKKASKGKGLRGSAKIWSKSN [COPS7A]
54
3) MAQSRDGGNPFAEPSELDNPFQDPAVIQHRPSRQYATLDVYNPFETREPPPAYEPPAPAPLPPPSAPSLQPSRKLSPTEPKNYGSYSTQASAAAATAELLKKQEELNRKAEELDRRERELQHAALGGTATRQNNWPPLPSFCPVQPCFFQDISMEIPQEFQKTVSTMYYLWMCSTLALLLNFLACLASFCVETNNGAGFGLSILWVLLFTPCSFVCWYRPMYKAFRSDSSFNFFVFFFIFFVQDVLFVLQAIGIPGWGFSGWISALVVPKGNTAVSVLMLLVALLFTGIAVLGIVMLKRIHSLYRRTGASFQKAQQEFAAGVFSNPAVRTAAANAAAGAAENAFRAP [SCAMP3]
57.8
4) MAGKKVLIVYAHQEPKSFNGSLKNVAVDELSRQGCTVTVSDLYAMNLEPRATDKDITGTLSNPEVFNYGVETHEAYKQRSLASDITDEQKKVREADLVIFQFPLYWFSVPAILKGWMDRVLCQGFAFDIPGFYDSGLLQGKLALLSVTTGGTAEMYTKTGVNGDSRYFLWPLQHGTLHFCGFKVLAPQISFAPEIASEEERKGMVAAWSQRLQTIWKEEPIPCTAHWHFGQ [NQO2]
62
5) MSGSLGRAAAALLRWGRGAGGGGLWGPGVRAAGSGAGGGGSAEQLDALVKKDKVVVFLKGTPEQPQCGFSNAVVQILRLHGVRDYAAYNVLDDPELRQGIKDYSNWPTIPQVYLNGEFVGGCDILLQMHQNGDLVEELKKLGIHSALLDEKKDQDSK [GLRX5]
53

QUERY: Returns the measured melting temperature for the input sequence. Input: MEGISNFKTPSKLSEKKKSVLCSTPTINIPASPFMQKLGFGTGVNVYLMKRSPRGLSHSPWAVKKINPICNDHYRSVYQKRLMDEAKILKSLHHPNIVGYRAFTEANDGSLCLAMEYGGEKSLNDLIEERYKASQDPFPAAIILKVALNMARGLKYLHQEKKLLHGDIKSSNVVIKGDFETIKICDVGVSLPLDENMTVTDPEACYIGTEPWKPKEAVEENGVITDKADIFAFGLTLWEMMTLSIPHINLSNDDDDEDKTFDESDFDDEAYYAALGTRPPINMEELDESYQKVIELFSVCTNEDPKDRPSAAHIVEALETDV [PBK]
RESULT: 47.6

QUERY: What do you get for MAAAVAAAGAGEPQSPDELLPKGDAEKPEEELEEDDDEELDETLSERLWGLTEMFPERVRSAAGATFDLSLFVAQKMYRFSRAALWIGTTSFMILVLPVVFETEKLQMEQQQQLQQRQILLGPNTGLSGGMPGALPSLPGKI [TOMM22] ?
RESULT: 52.8

QUERY: What do you get for MAAPALRLCHIAFHVPAGQPLARNLQRLFGFQPLASREVDGWRQLALRSGDAVFLVNEGAGSGEPLYGLDPRHAVPSATNLCFDVADAGAATRELAALGCSVPVPPVRVRDAQGAATYAVVSSPAGILSLTLLERAGYRGPFLPGFRPVSSAPGPGWVSRVDHLTLACTPGSSPTLLRWFHDCLGFCHLPLSPGEDPELGLEMTAGFGLGGLRLTALQAQPGSIVPTLVLAESLPGATTRQDQVEQFLARHKGPGLQHVGLYTPNIVEATEGVATAGGQFLAPPGAYYQQPGKERQIRAAGHEPHLLARQGILLDGDKGKFLLQVFTKSLFTEDTFFLELIQRQGATGFGQGNIRALWQSVQEQSARSQEA [HPDL] ?
RESULT: 52.8

QUERY: What do you get for MESGDEAAIERHRVHLRSATLRDAVPATLHLLPCEVAVDGPAPVGRFFTPAIRQGPEGLEVSFRGRCLRGEEVAVPPGLVGYVMVTEEKKVSMGKPDPLRDSGTDDQEEEPLERDFDRFIGATANFSRFTLWGLETIPGPDAKVRGALTWPSLAAAIHAQVPED [RNASEH2C] ?
RESULT: 50.3

QUERY: What do you get for MDTPLRRSRRLGGLRPESPESLTSVSRTRRALVEFESNPEETREPGSPPSVQRAGLGSPERPPKTSPGSPRLQQGAGLESPQGQPEPGAASPQRQQDLHLESPQRQPEYSPESPRCQPKPSEEAPKCSQDQGVLASELAQNKEELTPGAPQHQLPPVPGSPEPYPGQQAPGPEPSQPLLELTPRAPGSPRGQHEPSKPPPAGETVTGGFGAKKRKGSSSQAPASKKLNKEELPVIPKGKPKSGRVWKDRSKKRFSQMLQDKPLRTSWQRKMKERQERKLAKDFARHLEEEKERRRQEKKQRRAENLKRRLENERKAEVVQVIRNPAKLKRAKKKQLRSIEKRDTLALLQKQPPQQPAAKI [CCDC86] ?
RESULT: 54.1
